System: PF3D7_0420300 AP2 domain 1 (GST-tagged)
Test name: gcPBM binding intensity (ln(normalized median fluorescence intensity)); higher = stronger DNA binding
The full ranking holds about 25,000 sequences; the median of “ln(normalized median fluorescence intensity)” is about 9.3, and the highest 2% start at about 10. Shown is part of a subset that was picked to be rich in the highest values.
Measured endpoint: gcPBM binding intensity (ln)

polymer_sequence="TTATACTGTTTCAGAAAAATAAAGAATGAAAGTATT [XGTACX_negctrl_site230]" target_or_system="PF3D7_0420300 AP2 domain 1 (GST-tagged)" recorded_measurement=9.23
polymer_sequence=TATATATATATAATAGTGCATAAATAAATATATAAA target_or_system="PF3D7_0420300 AP2 domain 1 (GST-tagged)" recorded_measurement=9.28
polymer_sequence="AATATACATAACAAGGTGCAAAAAATATTGTTCATA [GTGCAC_site9499]" target_or_system="PF3D7_0420300 AP2 domain 1 (GST-tagged)" recorded_measurement=9.5
polymer_sequence="AGTATTCACTTAATATGTACATATTTATTATAAGAG [XGTACX_site3434]" target_or_system="PF3D7_0420300 AP2 domain 1 (GST-tagged)" recorded_measurement=9.11
polymer_sequence="ATTATATTATATTATACATGCATAATATTATATAAA [TGCATGCA_site647]" target_or_system="PF3D7_0420300 AP2 domain 1 (GST-tagged)" recorded_measurement=9.17

* * *

System: PF3D7_0420300 AP2 domain 1 (GST-tagged)
Test name: gcPBM binding intensity (ln(normalized median fluorescence intensity)); higher = stronger DNA binding
In all, about 25,000 sequences were measured (“ln(normalized median fluorescence intensity)”: median about 9.3, highest 2% from about 10 on). What follows is part of a selection rich in the highest values, with near analogues and random picks from the rest.
Listing of entries alongside the reported gcPBM binding intensity (ln).
Measured endpoint: gcPBM binding intensity (ln)

polymer_sequence="TCATAAATTAAACACACACACACATCTGGATACCCC [CACACA_site9096]" recorded_measurement=10.3
polymer_sequence="CACGCACGCACATACACACACATACACATATAAATA [CACACA_site6907]" recorded_measurement=9.95
polymer_sequence="TAAATTAAAAAAAATACACACACACCGACACATATA [CACACA_site9084]" recorded_measurement=10
polymer_sequence="ATAACATATATATATACACACACATATATATATGAA [CACACA_site7983]" recorded_measurement=9.79
polymer_sequence="AAAAAAAAAAAAAATACACACATATATATATATATA [CACACA_site85]" recorded_measurement=9.45
polymer_sequence="GTTCATAAATTAAACACACACACACGGCTGGATACC [CACACA_site7545]" recorded_measurement=10.1
polymer_sequence="TCATAAATGAAACACACACACACATCTGGATACCCC [CACACA_site3332]" recorded_measurement=10.1
polymer_sequence="CTAAAATACAGACACACACACACATATATATATATA [CACACA_site4150]" recorded_measurement=9.93
polymer_sequence="TATATATTATATATATGTACTTATTCATATATATAA [XGTACX_site3860]" recorded_measurement=9.06
polymer_sequence="AAAAAAAATACATACACACACACACGCACATATATA [CACACA_site7645]" recorded_measurement=10.4
polymer_sequence="TAAACATACCTATACACACACACACGCACACGCACA [CACACA_site6372]" recorded_measurement=10.3
polymer_sequence="CCATAAAACTATAATACACACATATAGATTAACATA [CACACA_site7849]" recorded_measurement=9.7
polymer_sequence="TTTAAATACAGACATACACACATACACGCACATATA [CACACA_site6400]" recorded_measurement=9.85
polymer_sequence="AACATTTTTAAATATATAAAAATATATATATATATA [XGTACX_negctrl_site551]" recorded_measurement=8.97
polymer_sequence="CATTTTAAAACAGACACACACCAAAAAAAAAAAAAA [CACACA_site6259]" recorded_measurement=9.4
polymer_sequence=ACTTATTTATTTTTAGTGCATTTAGTTTTATTTTAT recorded_measurement=9.63
polymer_sequence="ATAAATTAAAAACACACACACATCTGGATACCCCTA [CACACA_site5780]" recorded_measurement=10.1
polymer_sequence="AAAATACACGCATACACACACACACCGACACATATA [CACACA_site4523]" recorded_measurement=10.2
polymer_sequence="GTTCATAAATTAAACACACACACACCCCTGGATACC [CACACA_site3331]" recorded_measurement=10.2
polymer_sequence="TTTTGCGAAAAAAGGTGTACTGTAAATATATTGAGG [XGTACX_site8941]" recorded_measurement=9.09
